B1: KLHL14 (parent)
chain: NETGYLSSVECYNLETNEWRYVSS

# Variants of: B1
# protocol: protein stability index of a GFP-peptide fusion (GPS, HEK-293T) (PSI 1-6); higher = more stable;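 note: lentivirally expressed fusions sorted by FACS into six bins by GFP to DsRed ratio, PSI derived from sequencing read proportions per bin multiplied by bin number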
# measurement_context: c terminus: a fixed tail appended
Reported protein stability index is given for each of the following variants.
A bare number is all that is needed in reply.

Answered cases to consult:
E18P = 2.58
N13K = 2.56
E2P = 2.72
V22Q = 3.73

Then there is this variant:
Lab note: measured protein stability index of S8A was 3.34
